Every entry's value here was drawn from ChEMBL document CHEMBL1141128.

- PROCEDURE SUMMARY: Half-life of the conjugate when treated with 10% foetal bovine serum for enzymatic stability
- Format: ADME, Bos taurus
- RECORDED CONDITIONS: cattle
Non-standard residues stand in square brackets, D forms with d. Residues, ends and D or L forms follow the SMILES beside them. Lys(Me2) = CN(C)CCCC[C@H](N)C(=O)O; Nlys = NCCCCNCC(=O)O
List of half-life values.

// known answers, use as guide
NCCCC[C@H](NC(=O)CN(CCCCN)C(=O)CN(CCCCN)C(=O)CN(CCCCN)C(=O)CN(CCCCN)C(=O)CN(CCCCN)C(=O)CN(CCCCN)C(=O)CN(CCCCN)C(=O)CN(CCCCN)C(=O)CN)C(=O)O (H-G[Nlys][Nlys][Nlys][Nlys][Nlys][Nlys][Nlys][Nlys]K-OH) | > 168 h
CN(C)CCCC[C@H](NC(=O)[C@H](CCCCN)NC(=O)[C@H](CCCCN(C)C)NC(=O)[C@H](CCCCN)NC(=O)[C@H](CCCCN(C)C)NC(=O)[C@H](CCCCN)NC(=O)[C@H](CCCCN(C)C)NC(=O)[C@@H](N)CCCCN)C(=O)N[C@H](C=O)CCCCN (H-K[Lys(Me2)]K[Lys(Me2)]K[Lys(Me2)]K[Lys(Me2)]K-aldehyde) | > 168 h
NCCCC[C@@H](C=O)NC(=O)[C@H](CCCCN)NC(=O)[C@H](CCCCN)NC(=O)[C@H](Cc1c[nH]cn1)NC(=O)[C@H](CCCCN)NC(=O)[C@H](CCCCN)NC(=O)[C@H](Cc1c[nH]cn1)NC(=O)[C@H](CCCCN)NC(=O)[C@@H](N)CCCCN (H-KKHKKHKKK-aldehyde) | > 168 h

Okay, now this molecule:
Entry under review: NCCCC[C@H](NC(=O)CN(CCCCN)C(=O)[C@H](CCCCN)NC(=O)CN(CCCCN)C(=O)[C@H](CCCCN)NC(=O)CN(CCCCN)C(=O)[C@H](CCCCN)NC(=O)CN(CCCCN)C(=O)[C@@H](N)CCCCN)C(=O)O (H-K[Nlys]K[Nlys]K[Nlys]K[Nlys]K-OH) . Reported half-life?
> 168 h

----------
- PROCEDURE SUMMARY: Half-life of the conjugate when treated with 25% murine serum for enzymatic stability; No degradation observed within the period of time indicated
- Assay type: ADME
- RECORDED CONDITIONS: mouse
QUANTITY MEASURED: half-life

Entry under review: NCCCC[C@@H](C=O)NC(=O)[C@@H](CCCCN)NC(=O)[C@@H](CCCCN)NC(=O)[C@@H](CCCCN)NC(=O)[C@@H](CCCCN)NC(=O)[C@@H](CCCCN)NC(=O)[C@@H](CCCCN)NC(=O)[C@@H](CCCCN)NC(=O)[C@H](N)CCCCN . Reported half-life?
> 2880 min

----------
- PROCEDURE SUMMARY: Half-life of the conjugate when treated with 25% murine serum for enzymatic stability
- Assay type: ADME
- RECORDED CONDITIONS: mouse
Non-standard residues stand in square brackets, D forms with d. Residues, ends and D or L forms follow the SMILES beside them. Lys(Me2) = CN(C)CCCC[C@H](N)C(=O)O; hLys = NCCCCC[C@H](N)C(=O)O
List of half-life values.
# unit: h | format: bare number

// known answers, use as guide
NCCCCC[C@H](NC(=O)[C@H](CCCCCN)NC(=O)[C@H](CCCCCN)NC(=O)[C@H](CCCCCN)NC(=O)[C@H](CCCCCN)NC(=O)[C@H](CCCCCN)NC(=O)[C@H](CCCCCN)NC(=O)[C@@H](N)CCCCCN)C(=O)N[C@H](C=O)CCCCN (H-[hLys][hLys][hLys][hLys][hLys][hLys][hLys][hLys]K-aldehyde) | 17
NCCCC[C@@H](C=O)NC(=O)[C@H](CCCCN)NC(=O)[C@H](CCCCN)NC(=O)[C@H](Cc1c[nH]cn1)NC(=O)[C@H](CCCCN)NC(=O)[C@H](CCCCN)NC(=O)[C@H](Cc1c[nH]cn1)NC(=O)[C@H](CCCCN)NC(=O)[C@@H](N)CCCCN (H-KKHKKHKKK-aldehyde) | 6

Entry under review: CN(C)CCCC[C@H](NC(=O)[C@H](CCCCN)NC(=O)[C@H](CCCCN)NC(=O)[C@H](CCCCN(C)C)NC(=O)[C@H](CCCCN)NC(=O)[C@@H](N)CCCCN)C(=O)N[C@@H](CCCCN)C(=O)N[C@@H](CCCCN)C(=O)N[C@H](C=O)CCCCN (H-KK[Lys(Me2)]KK[Lys(Me2)]KKK-aldehyde) . Reported half-life?
22
